These data points were gathered from ChEMBL document CHEMBL4196025.

IC50, Cholinesterase (Equus caballus), per-entry values.
Numbers only; they are read as nM.

Example compounds with recorded IC50:
COc1cc(/C=C/C(=O)NCCCCCCNc2c3c(nc4ccccc24)CCCC3)ccc1OCc1nc(C)c(C)nc1C
28.3
O=C(/C=C/c1ccc(O)cc1)NCCCCCCCCNc1c2c(nc3ccccc13)CCCC2
278
COc1cc(/C=C/C(=O)NCCCCNc2c3c(nc4ccccc24)CCCC3)cc(OC)c1O
241
COc1cc(/C=C/C(=O)NCCCCNc2c3c(nc4ccccc24)CCCC3)ccc1OCc1nc(C)c(C)nc1C
32.4
Cc1nc(C)c(COc2ccc(/C=C/C(=O)NCCCCCCNc3c4c(nc5ccccc35)CCCC4)cc2OCc2nc(C)c(C)nc2C)nc1C
68.1

Input: Entry Cc1nc(C)c(COc2ccc(CC(O)C(=O)NCCCCCCCCNc3c4c(nc5ccccc35)CCCC4)cc2OCc2nc(C)c(C)nc2C)nc1C (stereo not drawn) , system Cholinesterase (Equus caballus): what IC50 was measured?
Output: 3.8

Input: Entry Cc1nc(C)c(COc2ccc(/C=C/C(=O)NCCCCCCCCNc3c4c(nc5ccccc35)CCCC4)cc2)nc1C , system Cholinesterase (Equus caballus): what IC50 was measured?
Output: 228

###

IC50, Cholinesterase (Equus caballus, UniProt P81908), per-entry values.
Numbers only; they are read as nM.

Cc1nc(C)c(COc2ccc(/C=C/C(=O)NCCCNc3c4c(nc5ccccc35)CCCC4)cc2)nc1C
5.2

Continue with the compound presented below.
Input: Entry Cc1nc(C)c(COc2ccc(CC(O)C(=O)NCCCCCCNc3c4c(nc5ccccc35)CCCC4)cc2OCc2nc(C)c(C)nc2C)nc1C (stereo unspecified) , system Cholinesterase (Equus caballus, UniProt P81908): what IC50 was measured?
Output: 1.3

###

Reported IC50 by item:
biological target: Cholinesterase (Homo sapiens, UniProt P06276); test: Inhibition of human serum BCHE using butyrylthiocholine iodide as substrate preincubated for 5 mins followed by DTNB addition for 5 mins and subsequent addition of substrate measured after 3 mins by Ellman's method
Sequence (P06276 whole entry): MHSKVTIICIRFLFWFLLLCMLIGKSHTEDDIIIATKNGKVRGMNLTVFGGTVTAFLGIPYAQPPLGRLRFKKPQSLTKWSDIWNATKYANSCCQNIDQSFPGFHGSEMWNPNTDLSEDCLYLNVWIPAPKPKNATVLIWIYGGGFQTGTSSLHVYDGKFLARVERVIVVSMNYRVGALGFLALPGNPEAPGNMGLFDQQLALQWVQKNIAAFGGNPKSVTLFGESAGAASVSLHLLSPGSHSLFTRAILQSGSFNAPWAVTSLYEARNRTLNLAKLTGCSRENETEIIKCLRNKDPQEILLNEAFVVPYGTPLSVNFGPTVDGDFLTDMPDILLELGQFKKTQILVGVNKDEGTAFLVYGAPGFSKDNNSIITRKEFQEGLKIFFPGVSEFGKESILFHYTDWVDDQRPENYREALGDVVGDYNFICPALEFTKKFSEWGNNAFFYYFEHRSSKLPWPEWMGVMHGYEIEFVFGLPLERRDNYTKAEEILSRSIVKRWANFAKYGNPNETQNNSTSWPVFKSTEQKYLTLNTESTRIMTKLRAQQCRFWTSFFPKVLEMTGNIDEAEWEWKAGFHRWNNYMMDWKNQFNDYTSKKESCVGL
Numbers only; they are read as nM.

COc1cc(/C=C/C(=O)NCCCCCCNc2c3c(nc4ccccc24)CCCC3)cc(OC)c1OCc1nc(C)c(C)nc1C
577

Continue with the compound presented below.
Input: Entry COc1cc(/C=C/C(=O)NCCCCCCNc2c3c(nc4ccccc24)CCCC3)cc(OC)c1O , system Cholinesterase (Homo sapiens, UniProt P06276): what IC50 was measured?
Output: 48.8

###

experiment: Cytotoxicity against NGF-differentiated rat PC12 cells assessed as cell viability at 10 uM after 48 hrs by MTT assay relative to control; format: cell-based, PC-12; details: read-out: Activity
measured_metric: viability at 48 h, 10 µM (%)
Numbers only; they are read as %.

Input: Which viability at 48 h, 10 µM reading was recorded for the compound COc1cc(/C=C/C(=O)NCCCCCCNc2c3c(nc4ccccc24)CCCC3)cc(OC)c1O ?
Output: 131

###

pIC50, Cholinesterase (Equus caballus, UniProt P81908), per-entry values.
Units for pIC50: none; it is -log10 of a concentration expressed in mol/L.

Cc1nc(C)c(COc2ccc(/C=C/C(=O)NCCCCCCNc3c4c(nc5ccccc35)CCCC4)cc2)nc1C
6.83

Input: Entry Cc1nc(C)c(COc2ccc(/C=C/C(=O)NCCCCCCCCNc3c4c(nc5ccccc35)CCCC4)cc2OCc2nc(C)c(C)nc2C)nc1C , system Cholinesterase (Equus caballus, UniProt P81908): what pIC50 was measured?
Output: 7.21

Input: Entry Cc1nc(C)c(COc2ccc(/C=C/C(=O)NCCCCNc3c4c(nc5ccccc35)CCCC4)cc2OCc2nc(C)c(C)nc2C)nc1C , system Cholinesterase (Equus caballus, UniProt P81908): what pIC50 was measured?
Output: 6.96
